Compiled literature log10 IC50, tested on RNA-directed RNA polymerase (Hepacivirus hominis, UniProt O39930).
Friendly reminder: values = log10 of IC50, unit µM.

Input: Quick one: log10 IC50 of "O=C(O)C(=O)/C=C(\O)c1cccc(OCc2ccc(-c3ccccc3)cc2)c1" ?
Output: 1.70

Input: Quick one: log10 IC50 of "C[N+]1(C)C[C@]23c4c5c6c7c8c9c%10c%11c%12c%13c%14c%15c%16c%17c%18c%19c%20c%21c(c2c2c4c4c6c9c6c4c4c2c%21c2c(c%16%20)c%15c9c%13c%10c6c9c24)[C@@H]%19[C@H]2c4c6c9c%10c(c4-%18)[C@@H]%17[C@@H]%14C%12=C%10[C@]4(C[N+](C)(C)C[C@@]8%114)[C@H]9[C@@H]7C5=C6[C@]23C1" ?
Output: -0.51

Input: Quick one: log10 IC50 of "CCCCOCCCNc1ncnc2nc(-c3ccccc3)c(-c3ccccc3)nc12" ?
Output: 1.94

Input: Quick one: log10 IC50 of "O=c1ccn([C@@H]2O[C@](F)(COP(=O)(O)OP(=O)(O)OP(=O)(O)O)[C@@H](O)[C@]2(F)Cl)c(=O)[nH]1" ?
Output: -0.72

Input: Quick one: log10 IC50 of "C[C@]1(F)[C@H](n2ccc(=O)[nH]c2=O)O[C@](F)(COP(=O)(O)OP(=O)(O)OP(=O)(O)O)[C@H]1O" ?
Output: -0.07

Input: Quick one: log10 IC50 of "CN(C)CCCNC(=O)COc1ccc(-c2nc3cc(C(=O)O)ccc3n2C2CCCCC2)cc1" ?
Output: 1.11

Input: Quick one: log10 IC50 of "O=C(O)C(=O)/C=C(\O)c1ccsc1Sc1cccc(Cl)c1" ?
Output: 0.88

Input: Quick one: log10 IC50 of "O=C(O)/C(=C/c1cccc(-c2ccccc2Cl)c1)NC(=O)c1ccccc1" ?
Output: 0.11

Input: Quick one: log10 IC50 of "COc1ccc2c(C(=O)N(C)CC(=O)O)c(Cl)ccc2c1C(F)(F)F" ?
Output: 0.71

Input: Quick one: log10 IC50 of "C[C@@]1(O)[C@H](F)[C@@H](COP(=O)(O)OP(=O)(O)OP(=O)(O)O)O[C@H]1n1cnc2c(=O)[nH]c(N)nc21" ?
Output: -0.20

Input: Quick one: log10 IC50 of "CCCCn1c(=O)c(C2=NS(=O)(=O)c3ccccc3N2)c(O)c2ccccc21" ?
Output: -1.00

Input: Quick one: log10 IC50 of "O=C(O)C(=O)/C=C(\O)c1cccc(OCc2ccsc2C(=O)O)c1" ?
Output: -0.02

Input: Quick one: log10 IC50 of "C[N+]1(C)C[C@]23c4c5c6c7c8c9c%10c%11c%12c%13c%14c%15c%16c%17c%18c%19c%20c(c2c2c4c4c6c6c8c%10c8c%12c%10c%14c(c%15%19)c%12c%20c2c2c4c6c8c%10c%122)[C@@H]%18[C@H]2c4c6c8c%10c(c4-%17)[C@@H]%16[C@H]%13[C@@]%114C[N+](C)(C)C[C@]%104C=9[C@H]8[C@@H]7C5=C6[C@]23C1" ?
Output: -0.51

Input: Quick one: log10 IC50 of C[C@@H]1C[C@@H](N(C(=O)c2ccc(Oc3ccccc3)cc2)c2ncc(C(=O)O)s2)CC(C)(C)C1 (single isomer, unassigned) ?
Output: 0.78

Input: Quick one: log10 IC50 of "COc1ccc([C@H](NC(=O)c2ccc3c(c2)nc(-c2ccoc2)n3C2CCCCC2)C(=O)O)cc1OC" ?
Output: -0.40

Input: Quick one: log10 IC50 of "O=C(O)C(=O)/C=C(\O)c1ccc(Cc2cccc(Cl)c2)s1" ?
Output: 1.91

Input: Quick one: log10 IC50 of "O=C(O)/C(=C/c1ccc(Oc2ccccc2Br)cc1)NC(=O)c1cccc(F)c1" ?
Output: -1.05

Input: Quick one: log10 IC50 of O=C(O)/C(=C/c1ccc(Oc2ccccc2Br)cc1)NC(=O)C1CC2CCC1C2 (stereo unspecified) ?
Output: -1.00

Input: Quick one: log10 IC50 of "O=C(N[C@@H](Cc1ccc(O)cc1)C(=O)O)c1ccc2c(c1)nc(-c1ccccn1)n2C1CCCCC1" ?
Output: 0.18

Input: Quick one: log10 IC50 of "CNC(=O)c1ccc2c(c1)nc(-c1ccccn1)n2C1CCCCC1" ?
Output: 1.45

Input: Quick one: log10 IC50 of "COc1ccccc1[C@H]1[C@@H](C(=O)O)C[C@@](CC(C)C)(C(=O)O)N1C(=O)c1ccc(C(F)(F)F)cc1" ?
Output: 0.71

Input: Quick one: log10 IC50 of O=C(O)[C@H]1C[C@@H](C(=O)O)N(C(=O)c2ccc(Cl)c(Cl)c2)C1 (racemic) ?
Output: 1.08

Input: Quick one: log10 IC50 of "N#Cc1cccc(COc2cccc(/C(O)=C/C(=O)C(=O)O)c2)c1" ?
Output: 0.83

Input: Quick one: log10 IC50 of "O=C(O)CCCC(=O)N/C(=C\c1ccc(Oc2ccccc2I)cc1)C(=O)O" ?
Output: -0.08

Input: Quick one: log10 IC50 of "O=C(O)/C(=C/c1ccc(-c2ccccc2F)s1)NC(=O)c1ccccc1" ?
Output: 0.41

Input: Quick one: log10 IC50 of "C[C@@]1(O)[C@H](O)[C@@H](COP(=O)(O)OP(=O)(O)OP(=O)(O)O)O[C@H]1n1cnc2c(=O)[nH]c(N)nc21" ?
Output: -0.38

Input: Quick one: log10 IC50 of "CNC(=O)c1c(-c2ccc(F)cc2)oc2nc(CN)c(C3CC3)cc12" ?
Output: 0.80

Input: Quick one: log10 IC50 of "O=C(O)[C@H](Cc1ccccc1)N(Cc1cccc(Br)c1)C(=O)c1ccccc1Cl" ?
Output: 1.18

Input: Quick one: log10 IC50 of "O=C(O)c1csc(N(C(=O)c2ccc(Oc3ccccc3)cc2)C2CCCCC2)n1" ?
Output: 1.00

Input: Quick one: log10 IC50 of C[C@H]1CC[C@@H](N(C(=O)c2ccc(Oc3ccccc3)cc2)c2nc(C(=O)O)cs2)CC1 (stereo in doubt; trans) ?
Output: 0.73

Input: Quick one: log10 IC50 of "COC(=O)N(CC(=O)O)C(=O)c1c(F)ccc2c(C(F)(F)F)c(OC)ccc12" ?
Output: 1.18
